Test system: HBV rcDNA in HepDE19 cells
assay-explanation: HepDE19 assay with bDNA quantitation of HBV rcDNA
Type: cell-based, hepatitis B virus
study-conditions: Hepatitis B virus, HepDE19, 168 h, HepDE19 cells, 7 day incubation, rcDNA measured by Quantigene 2.0 bDNA assay; top concentration 25 µM; read-out: DE-19bDNA EC50
Provide the recorded EC50 for the entries that follow.
Answers are plain numbers, in nM.

Hi! Can you tell me EC50 for each of these compounds?
1. CC(C)CN(C(=O)Nc1ccc(F)c(Cl)c1)C(C)c1n[nH]c(=O)c2ccccc12 (racemic)
2. CC(c1nn(C)c(=O)c2cc(F)c(F)cc12)N(CCCO)C(=O)Nc1ccc(F)c(Cl)c1 (racemic)
3. CC(c1n[nH]c(=O)c2cc(Cl)ccc12)N(CCCO)C(=O)Nc1ccc(F)cc1 (racemic)
4. CC(c1n[nH]c(=O)c2c(F)cccc12)N(C)C(=O)Nc1ccc(F)c(Cl)c1 (stereo not drawn)
5. CC(c1n[nH]c(=O)c2cc(F)c(F)cc12)N(C)C(=O)c1cc2c(F)cccc2[nH]1 (racemic)

1. 10
2. 10
3. 110
4. 290
5. 83

Hi! Can you tell me EC50 for each of these compounds?
1. CC(C)CN(C(=O)Nc1ccc(F)cc1)C(C)c1nn(C)c(=O)c2cc(F)c(F)cc12 (racemic)
2. CC(c1n[nH]c(=O)c2cc(Cl)ccc12)N(CCCO)C(=O)Nc1ccc(F)c(Cl)c1 (racemic)
3. CC(c1n[nH]c(=O)c2ccccc12)N(C)C(=O)Nc1ccc(F)c(Cl)c1 (racemic)
4. CC(c1n[nH]c(=O)c2cc(F)ccc12)N(C)C(=O)Nc1ccc(F)cc1 (racemic)

1: 7; 2: 22; 3: 240; 4: 500

* * *

Provide the recorded EC50 for the entries that follow.
System: HBV rcDNA in HepDE19 cells
assay-explanation: HepDE19 assay with bDNA quantitation of HBV rcDNA
Assay type: cell-based, hepatitis B virus
study-conditions: Hepatitis B virus, HepDE19, 168 h, HepDE19 cells, 7 day incubation, rcDNA measured by Quantigene 2.0 bDNA assay; top concentration 25 µM; read-out: DE-19bDNA EC50
Numbers only, in nM.

Worked cases, EC50 given:
CC(C)CN(C(=O)Nc1ccc(F)c(Cl)c1)C(C)c1n[nH]c(=O)c2cc(Cl)ccc12 (racemic) :: 20
CC(c1n[nH]c(=O)c2cc(F)ccc12)N(C)C(=O)Nc1ccc(F)c(Cl)c1 (racemic) :: 81
CC(C)CN(C(=O)Nc1ccc(F)c(Cl)c1)C(C)c1n[nH]c(=O)c2cc(F)ccc12 (racemic) :: 10
CC(c1nn(C)c(=O)c2cc(F)c(F)cc12)N(CCS(=O)(=O)NC(=O)Nc1ccc(F)c(Cl)c1)C(=O)Nc1ccc(F)c(Cl)c1 (racemic) :: 58

Which EC50 is reported with HBV rcDNA in HepDE19 cells for this entry: CC(C)CN(C(=O)Nc1ccc(F)cc1)C(C)c1nn(C)c(=O)c2ccccc12 (racemic) ? 30

* * *

Test system: HBV rcDNA in HepDE19 cells
assay-explanation: HepDE19 assay with bDNA quantitation of HBV rcDNA
Format: cell-based, hepatitis B virus
study-conditions: Hepatitis B virus, HepDE19, 168 h, read-out: DE-19bDNA EC50
Group membership follows EC50 per the scheme band A: < 20 nM; band B: ≥ 20 nM and < 40 nM; band C: ≥ 40 nM

Worked set:
CC(c1n[nH]c(=O)c2cc(F)c(F)cc12)N(C)C(=O)c1cc2ccccn2c1 (racemic) :: band C
C[C@H](c1nn(C)c(=O)c2cc(F)c(F)cc12)N(C)C(=O)Nc1ccc(F)c(Cl)c1 :: band A
C[C@@H](c1nn(C)c(=O)c2cc(F)c(F)cc12)N(C)C(=O)Nc1ccc(F)c(Cl)c1 :: band C
C[C@H](c1n[nH]c(=O)c2cc(F)c(F)cc12)N(C)C(=O)c1cc2ccccc2[nH]1 :: band B
C[C@H](c1n[nH]c(=O)c2cc(F)c(F)cc12)N(C)C(=O)Nc1ccc(F)c(F)c1 :: band B

# bin lookup: classify C[C@H](c1n[nH]c(=O)c2cc(F)c(F)cc12)N(C)C(=O)Nc1ccc(F)c(Cl)c1 (single isomer, unassigned) by its EC50 band B

For `C[C@H](c1n[nH]c(=O)c2cc(F)c(F)cc12)N(C)C(=O)c1cc2c(F)c(F)ccc2[nH]1` then? band A

For CC(C)CN(C(=O)Nc1ccccc1)C(C)c1n[nH]c(=O)c2cc(F)c(F)cc12 (stereo not shown) [Compound 40] then? band A
